Where do these numbers come from? They come from patent US20230286925A1.

Target or system hERG (Homo sapiens (Human)): recorded IC50 listed per item.

Below, 3 molecules whose answers are already recorded.
molecule_smiles=CN1CCN(c2ccc(-n3cc(C(=O)NCCCN4CCOCC4)nn3)cc2NC(=O)c2ccc(F)c(C(F)(F)F)c2)CC1 result="> 10 µM"
molecule_smiles=CCN(CC)C(=O)c1cn(-c2cc(NC(=O)c3cc(N)c(F)c(C)c3Cl)c(N3C[C@@H](C)N(C)[C@@H](C)C3)cc2F)nn1 result="3.6 µM"
molecule_smiles=Cc1c(F)c([N+](=O)[O-])cc(C(=O)Nc2cc(-n3cc(C(=O)NCCCN4CCOCC4)nn3)ccc2N2CCN(C)CC2)c1Cl result="> 10 µM"

q: Param readout= IC50; system= hERG (Homo sapiens (Human)); entry= CN1CCN(c2ccc(-n3cc(C(=O)NCCCN4CCOCC4)nn3)cc2NC(=O)c2ccc(F)c([N+](=O)[O-])c2)CC1 ; returns value.
a: > 10 µM

###

- system: hERG (Homo sapiens (Human), UniProt Q12809)
- Sequence (Q12809 whole entry): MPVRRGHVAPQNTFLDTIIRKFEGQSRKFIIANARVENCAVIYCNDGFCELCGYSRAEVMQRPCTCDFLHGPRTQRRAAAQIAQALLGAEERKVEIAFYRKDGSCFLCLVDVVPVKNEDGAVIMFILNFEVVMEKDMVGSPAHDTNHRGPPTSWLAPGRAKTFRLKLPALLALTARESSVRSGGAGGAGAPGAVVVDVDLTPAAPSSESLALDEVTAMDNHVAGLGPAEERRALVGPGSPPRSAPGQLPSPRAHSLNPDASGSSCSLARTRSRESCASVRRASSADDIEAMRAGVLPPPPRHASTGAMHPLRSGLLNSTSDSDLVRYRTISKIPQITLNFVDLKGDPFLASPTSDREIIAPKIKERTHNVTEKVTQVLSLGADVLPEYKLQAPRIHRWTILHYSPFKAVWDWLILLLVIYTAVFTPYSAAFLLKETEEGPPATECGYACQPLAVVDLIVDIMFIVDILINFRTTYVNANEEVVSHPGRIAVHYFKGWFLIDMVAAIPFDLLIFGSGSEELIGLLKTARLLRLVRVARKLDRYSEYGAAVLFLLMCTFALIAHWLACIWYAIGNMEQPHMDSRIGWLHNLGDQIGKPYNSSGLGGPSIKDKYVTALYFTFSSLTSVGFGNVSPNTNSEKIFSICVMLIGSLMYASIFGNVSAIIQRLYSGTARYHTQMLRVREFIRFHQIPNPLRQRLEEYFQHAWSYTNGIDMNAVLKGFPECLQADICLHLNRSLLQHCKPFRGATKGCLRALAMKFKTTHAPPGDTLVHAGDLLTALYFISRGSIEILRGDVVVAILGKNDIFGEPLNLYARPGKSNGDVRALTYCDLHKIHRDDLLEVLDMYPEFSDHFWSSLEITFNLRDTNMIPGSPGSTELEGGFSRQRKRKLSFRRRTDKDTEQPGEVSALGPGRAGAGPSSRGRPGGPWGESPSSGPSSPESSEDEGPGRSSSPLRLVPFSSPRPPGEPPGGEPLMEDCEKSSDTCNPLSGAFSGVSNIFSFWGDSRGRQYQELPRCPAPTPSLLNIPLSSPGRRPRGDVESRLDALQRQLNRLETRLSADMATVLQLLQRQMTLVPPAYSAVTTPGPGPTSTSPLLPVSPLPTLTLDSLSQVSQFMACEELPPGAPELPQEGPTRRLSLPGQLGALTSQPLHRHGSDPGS
measured.property: Ki (nM)
Answers are plain numbers, in nM.

q: Fill blank: measured Ki of the molecule CCN(CC)C(=O)c1cn(-c2cc(NC(=O)c3cc(N)c(F)c(C)c3Cl)c(N3C[C@@H](C)N(C)[C@@H](C)C3)cc2F)nn1 is ____.
a: 2040

###

- system: MLL1-WDR5 protein-protein interaction (Homo sapiens (Human), UniProt P61964)
- assay.details: WDR5 TR-FRET assay of inhibition against MLL1-WDR5 protein-protein interaction
- Format: binding
- experimental.conditions: WDR5 TR-FRET, 5 nM WDR5 protein, 10 nM peptide; read-out: MLL1-WDR5 PPI inhibitory activity
- Description: WDR5 TR-FRET Assay Procedure: Stock compounds were transferred to the assay plate by Echo Liquid Handler. […] EnVision Multimode Plate Reader (PerkinElmer) was used for the TR-FRET assay with excitation wavelength at 340 nm and emission wavelength at 495 and 520 nm. […] IC50 was calculated by fitting the inhibition data using XLfit software to sigmoidal dose-response model. […]
measured.property: pIC50
Numbers only, as −log10 of the molar value.

Example cases with answers are listed next.
compound="Cc1c(F)c(N)cc(C(=O)Nc2cc(-n3cc(C(=O)NCCCN4CCOCC4)nn3)c(F)cc2N2CCN(C)CC2)c1Cl [HYBI_023]" measured_property=pIC50 measured_number=7.70
compound="CCN(CC)C(=O)c1cn(-c2cc(NC(=O)c3cc(N)c(F)c(C)c3Cl)c(N3C[C@@H](C)N(C)[C@@H](C)C3)cc2F)nn1 [HYBI_082]" measured_property=pIC50 measured_number=8.31

Let us move to another entry and its pIC50.
q: Entry CN1CCN(c2ccc(-n3cc(C(=O)NCCCN4CCOCC4)nn3)cc2NC(=O)c2ccc(F)c([N+](=O)[O-])c2)CC1 [HYBI_040] has what pIC50?
a: 6.08

###

- system: MLL1-WDR5 protein-protein interaction (Homo sapiens (Human), UniProt P61964)
- assay.details: WDR5 TR-FRET assay of inhibition against MLL1-WDR5 protein-protein interaction
- Format: binding
- experimental.conditions: Table 7; read-out: WDR5 TR-FRET Assay (IC50 nM)
measured.property: IC50 (nM)
One number for each entry, in nM.

molecule_smiles=CC(C)N1CCN(c2ncc(-c3cc(Nc4ncnc(Cl)c4N)c(N4C[C@@H](C)N(C)[C@@H](C)C4)cc3F)cn2)CC1 system="MLL1-WDR5 protein-protein interaction (Homo sapiens (Human), UniProt P61964)" measured_property=IC50 measured_number=31.3

Can you give me IC50 for all of these, one by one?
1. C[C@@H]1CN(c2ncc(-c3cc(Nc4ncnc(Cl)c4N)c(N4CCN(C)[C@@H](C)C4)cc3F)cn2)C[C@H](C)O1
2. CN1CCCN(c2cc(F)c(-c3ccc(C(=O)N(C)C)cc3)cc2Nc2ncnc(Cl)c2N)CC1
3. C[C@@H]1CN(c2cc(F)c(C3=CCCN(c4ncc(CN5CCOCC5)cn4)C3)cc2Nc2ncnc(Cl)c2N)C[C@H](C)N1C
4. C[C@@H]1CN(c2cc(F)c(-c3cccc(CN4CCOCC4)c3)cc2Nc2ncnc(Cl)c2N)C[C@H](C)N1C
5. C[C@H]1CN(c2ccc(-c3ccc(C(=O)NCCN4CCOCC4)cc3)c(F)c2Nc2ncnc(Cl)c2N)CCN1C
6. C[C@@H]1CN(c2ccc(-c3ccc(NC(=O)CC4CCCCC4)cc3)c(F)c2Nc2ncnc(Cl)c2N)C[C@H](C)N1C
7. C[C@@H]1CN(c2cc(F)c(-c3ccc(C(=O)N(C)C)cc3)cc2Nc2ncnc(Cl)c2N)C[C@H](C)N1C
8. C[C@@H]1CN(c2cc(F)c(-c3ccnc(N4CCO[C@@H](C)C4)n3)cc2Nc2ncnc(Cl)c2N)C[C@H](C)N1C

a:
3.56
395
18.6
215
56.4
85.5
55.5
12.9
